Assay: Determination of pKa value of monomer having hydrophilic group by NaOH titration
Conditions: monomer having hydrophilic group used in the Preparation Example; NaOH titration in water/acetone, corrected
endpoint: pKa

These solved cases illustrate the format of a correct answer.
- molecule: "C=C(F)C(F)(F)OC(F)(C(F)(F)F)C(F)(F)OC(F)(C(F)(F)F)C(F)(F)OC(F)(C(=O)O)C(F)(F)F (stereo not shown)"
  pKa: 3.8
- molecule: "C=C(F)C(F)(F)OC(F)(C(F)(F)F)C(F)(F)OC(F)(C(=O)O)C(F)(F)F (stereo not shown)"
  pKa: 3.6

[a] C=C(F)C(F)(F)OC(F)(C(F)(F)F)C(F)(F)OC(F)(C(F)(F)F)C(F)(F)OC(F)(C(F)(F)F)C(F)(F)OC(F)(C(=O)O)C(F)(F)F (stereo not shown)
[b] C=C(F)C(F)(F)OC(F)(C(F)(F)F)C(F)(F)OC(F)(CO)C(F)(F)F (stereo not shown)
Exam item: Lab note: check whether a or b shows the higher recorded pKa. Record your answer as the label of the chosen record.
Marked response: b

###

Assay: physchem
endpoint: pKa
Quick one: just the number, no unit, thanks!

Exam item: If you can, please state the reported pKa value of C=C(F)C(F)(F)OC(F)(C(=O)O)C(F)(F)F (stereo not shown) .
Marked response: 3.4

###

Assay: Determination of pKa value of monomer having hydrophilic group by NaOH titration
Conditions: water/acetone mixture, pKa value (decided from experiments carried out three times), NaOH titration in water/acetone
endpoint: pKa
Keep the answer to the number alone.

Exam item: Requested read-out: pKa. Entry: C=CCC(O)(C(F)(F)F)C(F)(F)F [CH2═CHCH2C(CF3)2OH, 1,1-bistrifluoromethyl-3-buten-1-ol]
Marked response: 9.6

###

Experiment: Determination of pKa value of monomer having hydrophilic group by NaOH titration
Conditions: water/acetone mixture, pKa value (single titration), NaOH titration in water/acetone, pH at half equivalence point minus blank difference
endpoint: pKa
// return just the number, without any unit appended

Exam item: Value lookup for pKa; key = C=CCC(O)(C(F)(F)F)C(F)(F)F [CH2═CHCH2C(CF3)2OH, 1,1-bistrifluoromethyl-3-buten-1-ol]
Marked response: 9.69
